Target: KRas G12C (Homo sapiens, UniProt P01116, G12C)
Construct: Biotinylated KRas (corresponding to amino acids 1-169, produced at Accelegan Inc.); biotin (biotinylated); purchased Accelegan Inc
Sequence (P01116 1-169 isoform P01116-2 G12C): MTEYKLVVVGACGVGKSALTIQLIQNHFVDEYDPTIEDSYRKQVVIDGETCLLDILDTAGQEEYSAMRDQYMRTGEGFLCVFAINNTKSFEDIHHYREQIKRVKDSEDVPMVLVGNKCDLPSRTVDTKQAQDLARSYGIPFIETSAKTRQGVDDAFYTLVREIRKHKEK
Assay: KRas binding assay, TR-FRET displacement of Cy5 labelled tracer
Settings: 60-minute incubation at room temperature, 1% DMSO, pH 7.5
Method: This Example illustrates that exemplary compounds of the present invention bind to KRas and are capable of displacing a labeled tracer ligand occupying the KRas binding site. […] The ability of a compound to bind to KRas was measured using a TR-FRET displacement assay. […] After a 60-minute incubation at room temperature, the reaction was measured using a BMG LABTECH CLARIO star Plus via TR-FRET. […]
Overview of recorded log10 of IC50 for various compounds
A value of 2 here means IC50 of 100 in nM, since values are log10.

compound	dataValue
N#Cc1ccc(OC(=O)[C@@H]2[C@@H]3CC[C@H]2CN(c2nc(OCC45CCCN4CCC5)nc4c(F)c(-c5cccc6cccc(F)c56)ncc24)C3)cc1	4.44
CCc1c(F)ccc2cc(O)cc(-c3ncc4c(N5C[C@H]6C[C@@H](C(=O)n7ccc(C)n7)[C@H]6C5)nc(OC[C@@]56CCCN5C[C@H](F)C6)nc4c3F)c12	3.35

The compound listed as CCc1c(F)ccc2cc(O)cc(-c3ncc4c(N5CCC(C)(C(=O)n6ccc(C)n6)CC5)nc(OC[C@@]56CCCN5C[C@H](F)C6)nc4c3F)c12 shows log10 of IC50 equal to 2.03

// Cc1ccn(C(=O)C2CCCN(c3nc(OC[C@@]45CCCN4C[C@H](F)C5)nc4c(F)c(-c5ccc(F)c6sc(N)c(C#N)c56)c(C(F)(F)F)cc34)CC2)n1 (some centres unmarked) : log10 of IC50 value = 0.78

log10 of IC50 in this record for CCc1c(F)ccc2cc(O)cc(-c3ncc4c(N5CC[C@H](C(=O)n6ccc(C)n6)[C@H](C)C5)nc(OC[C@@]56CCCN5C[C@H](F)C6)nc4c3F)c12 : 1.45
